All values here come from paper PMC4850295.

- Tested on: GCaMP5-expressing T. gondii
- Construct: whole extracellular parasites expressing GCaMP5 Ca2+ sensor
- Set-up: species or system GCaMP5-expressing Toxoplasma gondii, extracellular; GCaMP5 fluorescence (cytosolic Ca2+) after 100 uM zaprinast in compound-pretreated extracellular parasites, background-subtracted, relative to zaprinast alone
- Test Context: 100 uM zaprinast stimulation; 10 min pretreatment; mean of two replicates; 0.23 h
Readout Name: fold change in fluorescence relative to zaprinast alone

IN: What is its fold change in fluorescence relative to zaprinast alone for GCaMP5-expressing T. gondii? Entry: CCCNC(=O)Nc1ccc(N(C)c2ccnc(NC3CC3)n2)cc1 [GW818933X]
OUT: 0.4908

IN: What would you report for CN1C(=O)C(Nc2ccccc2)=C(c2ccccc2)C1=O [SB-300079] ?
OUT: 0.899

IN: What would you report for COC(=O)Nc1nc2ccc(Oc3ccc(NC(=O)Nc4cccc(SC)c4)cc3)cc2[nH]1 [GW697999A] ?
OUT: 1.427

IN: What would you report for CN(C)C(=O)O[C@@H]1CN[C@@H](C#Cc2cc3ncnc(Nc4ccc(OCc5cccc(F)c5)c(Cl)c4)c3s2)C1 [GSK238063A] ?
OUT: 1.133

IN: What would you report for CCS(=O)(=O)c1ccc(OC)c(Nc2nccc(-c3c(-c4cccc(NC(=O)c5c(F)cccc5F)c4)nn4ncccc34)n2)c1 [GSK326180A] ?
OUT: 1.656

Please state fold change in fluorescence relative to zaprinast alone for every molecule in the list that follows.
1. NS(=O)(=O)CCc1cccc(Nc2nccc(-c3c(-c4cccc(NC(=O)c5c(F)cccc5F)c4)nn4ccccc34)n2)c1 [GSK336735A]
2. ON=C1CCc2cc(-c3nc(C4CCNCC4)[nH]c3-c3ccncc3)ccc21 [SB-614067-R]

OUT:
[1.201, 1.048]

###

- System: GCaMP5-expressing T. gondii
- Construct: whole extracellular parasites expressing GCaMP5 Ca2+ sensor
- Parameters: species or system GCaMP5-expressing Toxoplasma gondii, extracellular; GCaMP5 fluorescence (cytosolic Ca2+) after 100 uM zaprinast in compound-pretreated extracellular parasites, background-subtracted, relative to zaprinast alone
- Test Context: 100 uM zaprinast stimulation; 10 min pretreatment; mean of two replicates; 0.23 h
Would you mind telling me the reported fold change in fluorescence relative to zaprinast alone of each entry?
Numbers only.

Please state fold change in fluorescence relative to zaprinast alone for every molecule in the list that follows.
1. CCS(=O)(=O)c1ccc(OC)c(Nc2ncc(-c3cccc(OC)c3)o2)c1 [GW580509X]
2. O=c1[nH]cc(-c2ccc(N3CCOCC3)cc2)c2sc(-c3cn[nH]c3)cc12 [GSK2276055A]
3. CC(C)Nc1cc(-c2ccc3c(N)n[nH]c3c2)nc(N)n1 [GSK2221681A]
4. O=C(Nc1ccccc1F)NC1CCN(c2ccnc(Nc3ccc(F)cc3)n2)CC1 [GSK1379800A]
5. Cc1ccc(NC(=O)Nc2cccc(C(F)(F)F)c2)cc1 [GSK955403A]
6. CCOc1ccc2c(-c3ccnc(Nc4cccc(C(F)(F)F)c4)n3)cnn2n1 [GW811761X]

OUT:
1.14
0.8496
1.173
0.9564
0.9183
1.047

Please state fold change in fluorescence relative to zaprinast alone for every molecule in the list that follows.
1. CC(C)c1ccc(-c2cc(-c3c[nH]nc3-c3ccccn3)ccn2)cc1 [GW682841X]
2. CNC(=O)c1ncccc1Nc1nc(Nc2cc3c(cc2OC)CCCN3C(=O)CN(C)C)nc2[nH]ccc12 [GSK2220400A]

OUT:
[1.973, 1.127]

Please state fold change in fluorescence relative to zaprinast alone for every molecule in the list that follows.
1. COc1ccc(Nc2nccc(N3CCC(NC(=O)c4cccc(C#N)c4)C3)n2)cc1 (centres unmarked) [GSK1379730A]
2. CCCN(CCS(C)(=O)=O)Cc1ccc(-c2ccc3ncnc(Nc4ccc(OCc5cccc(F)c5)c(Cl)c4)c3c2)o1 [GW621823A]
3. Cn1cc(-c2cnc(N)c3c(-c4ccc5c(c4)CCN5C(=O)Cc4ccccc4)csc23)cn1 [GSK2593074A]
4. NCCC(NC(=O)c1cc(Br)c(-c2ccnc3[nH]ccc23)s1)c1ccccc1 (centres unmarked) [GSK1307810A]
5. Cc1ccc(-n2nc(C(C)(C)C)cc2NC(=O)Nc2ccc(OCCN3CCOCC3)c3ccccc23)cc1 [GW839464X]
6. Nc1n[nH]c2nnc(-c3ccccc3)cc12
7. Cn1cc(-c2ccc3c(c2)CCN3C(=O)Cc2cccc(F)c2)c2c(N)ncnc21 [GSK2603358A]
8. Cc1cc(O)cc(C)c1/C=C/c1cncc(-c2nn[nH]n2)c1 [GW441806A]

OUT:
0.96
0.6108
1.463
0.5195
1.059
1.055
1.56
1.117

###

- Test system: GCaMP5-expressing T. gondii
- Construct: whole extracellular parasites expressing GCaMP5 Ca2+ sensor
- Set-up: species or system GCaMP5-expressing Toxoplasma gondii, extracellular; GCaMP5 fluorescence (cytosolic Ca2+) after 100 uM zaprinast in compound-pretreated extracellular parasites, background-subtracted, relative to zaprinast alone
- Test Context: 100 uM zaprinast stimulation; 10 min pretreatment; mean of two replicates; 0.23 h
Readout Name: fold change in fluorescence relative to zaprinast alone

Before answering, review these 5 worked examples.
IN: What is its fold change in fluorescence relative to zaprinast alone for GCaMP5-expressing T. gondii? Entry: "COc1ccc(-n2cnc3c(N)ncnc32)cc1"
OUT: 1.027

IN: What would you report for N#Cc1cccc(Nc2nccc(-c3cnn4ncccc34)n2)c1 [GW778894X] ?
OUT: 0.1658

IN: What would you report for "O=C1NC(=O)C(N2CCc3ccccc32)=C1c1cccc(Cl)c1" ?
OUT: 0.7986

IN: What would you report for "Cn1cnc2c(N)ncnc21" ?
OUT: 1.06

IN: What would you report for N#CCc1ccc(Nc2nccc(Nc3ccc(Oc4ccccc4)cc3)n2)cc1 [GW639905A] ?
OUT: 1.192

Please state fold change in fluorescence relative to zaprinast alone for every compound in the list that follows.
1. N#Cc1c(NC(=O)c2ccccc2F)sc2c1CCCC2 [GW572738X]
2. COc1cc2ncn(-c3cc(OCC4CCCCC4)c(C(N)=O)s3)c2cc1OC [GSK204559A]
3. Clc1ccc(CNc2nccc(-c3cnn4ncccc34)n2)cc1 [GW781673X]
4. CC(=O)Nc1[nH]nc2ncc(-c3ccccc3)cc12
5. Cc1ccc(-c2cc3c(NC(=O)C4CC4)ncnc3o2)cc1 [GW819230X]
6. CC(C)c1ccc(Nc2nccc(-c3cnn4ncccc34)n2)cc1 [GW805758X]
7. Nc1nonc1-c1nc2cnccc2n1C1CC1

OUT:
1.241
1.336
0.7156
1.137
1.19
0.2516
1.282

###

- Test system: GCaMP5-expressing T. gondii
- Construct: whole extracellular parasites expressing GCaMP5 Ca2+ sensor
- Set-up: species or system GCaMP5-expressing Toxoplasma gondii, extracellular; GCaMP5 fluorescence (cytosolic Ca2+) after 100 uM zaprinast in compound-pretreated extracellular parasites, background-subtracted, relative to zaprinast alone
- Test Context: 100 uM zaprinast stimulation; 10 min pretreatment; mean of two replicates; 0.23 h
Readout Name: fold change in fluorescence relative to zaprinast alone
Numbers only.

Before answering, review these 5 worked examples.
IN: Report fold change in fluorescence relative to zaprinast alone for "NCc1ccc(-c2nc(-c3ccc(Cl)c(O)c3)c(-c3ccncc3)[nH]2)cc1" please.
OUT: 1.226

IN: What would you report for CCn1c(-c2nonc2N)nc2c(C#CC(C)(C)O)ncc(OC3CCNCC3)c21 [GSK619487A] ?
OUT: 1.184

IN: What would you report for COC(=O)Nc1nc2cc(Oc3ccc(NC(=O)Nc4ccccc4)cc3)ccc2[nH]1 [GW694590A] ?
OUT: 1.127

IN: What would you report for COC(=O)c1sc(-n2cnc3cc(OC)c(OC)cc32)cc1OCc1ccccc1C(F)(F)F [GSK1030058A] ?
OUT: 0.7743

IN: What would you report for "Cc1cc(-c2c(-c3ccc(F)cc3)ncn2CCCN2CCOCC2)nc(N)n1" ?
OUT: 1.044

Please state fold change in fluorescence relative to zaprinast alone for every molecule in the list that follows.
1. NC[C@H](CC1CCCCC1)NC(=O)c1cc(Br)c(-c2ccnc3[nH]ccc23)s1 [GSK1581427A]
2. O=C1NC(=O)C(N2CCc3ccccc32)=C1c1ccccc1Cl

OUT:
1.128
1.071

###

- Test system: GCaMP5-expressing T. gondii
- Construct: whole extracellular parasites expressing GCaMP5 Ca2+ sensor
- Parameters: species or system GCaMP5-expressing Toxoplasma gondii, extracellular; GCaMP5 fluorescence (cytosolic Ca2+) after 100 uM zaprinast in compound-pretreated extracellular parasites, background-subtracted, relative to zaprinast alone
- Test Context: 100 uM zaprinast stimulation; 10 min pretreatment; mean of two replicates; 0.23 h
Would you mind telling me the reported fold change in fluorescence relative to zaprinast alone of each entry?
Give bare numbers.

IN: Report fold change in fluorescence relative to zaprinast alone for Cc1cccc(-c2nc(Nc3ccncc3)c3sccc3n2)n1 [GW869641X] please.
OUT: 1.179

IN: What would you report for COc1ccccc1C1=C(Nc2cccc(O)c2)C(=O)NC1=O [SB-381891] ?
OUT: 0.9532

IN: What would you report for Nc1nc(-c2cccnc2)c(-c2ccnc3ccccc23)s1 [GW684083X] ?
OUT: 0.9409

IN: What would you report for NC(=O)c1ccc(Oc2nccc(-c3c(-c4ccc(F)cc4)ncn3C3CCNCC3)n2)cc1 [SB-242718] ?
OUT: 1.27

IN: What would you report for Fc1cccc(COc2ccc(Nc3ncncc3C#Cc3ccccc3)cc2Cl)c1 [GW651576X] ?
OUT: 1.149

IN: What would you report for CCn1c(-c2ccccn2)nc2cnccc21 [SB-736398] ?
OUT: 1.076

IN: What would you report for COc1cc2c(cc1Nc1nc(N3CCc4ccccc43)c3cc[nH]c3n1)N(C(=O)CN(C)C)CC2 [GSK2186269A] ?
OUT: 1.113

IN: What would you report for Fc1ccc(-c2c(-c3ccccn3)nc3n2CCS3)cc1 [SKF-104365] ?
OUT: 0.9062

Please state fold change in fluorescence relative to zaprinast alone for every compound in the list that follows.
1. COc1ccc(-c2ccncc2)cc1C(N)=O [GSK605714A]
2. O=C(Nc1n[nH]c2cc(-c3ccc(F)cc3)ccc12)C1CC1 [SB-735467]
3. Cc1cccc(-c2nc(Nc3cccc(C(N)=O)c3)c3ccccc3n2)n1 [GW876019X]
4. CCn1c(-c2nonc2N)nc2c(C#CC(C)(C)O)nc(CN3CCCC3)cc21 [GSK1000163A]

OUT:
1.144
0.9628
1.051
1.153
